Method: NCI Yeast Anticancer Drug Screen. Data for the rad52 strain (AID 147);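 note: 0% = growth of vehicle-treated control cultures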
Condition Label: S. cerevisiae rad52 mutant growth inhibition; at 100.0 µM; hits give high values
Compounds without any hit were thinned out: in the full panel of roughly 79,000, 15% have a hit. Calls of active or inactive are those of the source. Cut-off read from the data, not from the text of the source: active = growth inhibition above about 70%; inactive = the rest.

>  <Structure As Smiles>
C=CC[N+]12CN3CN(CN(C3)C1)C2

>  <growth inhibition>
29% (inactive)

$$$$
>  <Structure As Smiles>
CCCN(CCC)c1c([N+](=O)[O-])cc(S(N)(=O)=O)cc1[N+](=O)[O-]

>  <growth inhibition>
23% (inactive)

$$$$
>  <Structure As Smiles>
CC(C)(C)c1cc([N+](=O)[O-])cc([N+](=O)[O-])c1O

>  <growth inhibition>
33% (inactive)

$$$$

* * *

Method: NCI Yeast Anticancer Drug Screen. Data for the cln2 rad14 strain (AID 165);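 note: 0% = growth equal to vehicle treated cultures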
Condition Label: S. cerevisiae cln2 rad14 strain, at 50.0 µM
This is part of a sample that, as a whole, favours compounds with a hit. Of some 79,000 tested, about 15% had one in any assay. Calls of active or inactive are those of the source. Cut-off read from the data, not from the text of the source: active = growth inhibition above about 70%; inactive = the rest.
Classes used: 1 (yes) for active, 0 (no) for inactive

>  <Compound>
NC(C(=O)O)c1ccccc1Cl (stereo unspecified)

>  <Class Name>
1 (yes)

$$$$
>  <Compound>
CC[C@@]1(O)C(=O)OCc2c1cc1n(c2=O)Cc2cc3c(NC(=O)CN)cccc3nc2-1

>  <Class Name>
0 (no)

$$$$
>  <Compound>
O=C(CBr)OCc1ccccc1

>  <Class Name>
1 (yes)

$$$$
>  <Compound>
S=C(S)N1CCOCC1

>  <Class Name>
0 (no)

$$$$
>  <Compound>
CN(C)c1ccc(N=Cc2c([O-])ccc3ccccc23)cc1.[C-]#[O+].[C-]#[O+].[Ir]

>  <Class Name>
1 (yes)

$$$$
>  <Compound>
CC(=O)C1CCC2C3CCC4CC([N+]5(C)CCCCC5)CCC4(C)C3CCC12C (stereo unspecified)

>  <Class Name>
1 (yes)

$$$$
>  <Compound>
COc1ccc(C(Cc2ccc(Cl)c(Cl)c2)NCCO)cc1 (stereo unspecified)

>  <Class Name>
0 (no)

$$$$
>  <Compound>
O=P1(Oc2ccccc2)C(c2ccccc2)C(c2ccccc2)=NN1c1ccccc1 (stereo unspecified)

>  <Class Name>
1 (yes)

$$$$
>  <Compound>
CC(C)COP(=O)(O)OCC(C)C.[Al]

>  <Class Name>
0 (no)

$$$$
>  <Compound>
NCC(O)c1cccc(O)c1 (stereo unspecified)

>  <Class Name>
0 (no)

$$$$
>  <Compound>
CC(=O)OC1CCC2(C)C3CCC4(C)C(OC(=O)c5ccccc5)CCC4C3CC(Br)C2(O)C1 (stereo unspecified)

>  <Class Name>
1 (yes)

$$$$

* * *

Method: NCI Yeast Anticancer Drug Screen. Data for the rad50 strain (AID 155);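 note: 0% = growth of vehicle-only cultures of the same strain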
Condition Label: S. cerevisiae rad50 strain growth inhibition; at 50.0 µM; hits give high values
Compounds without any hit were thinned out: in the full panel of roughly 79,000, 15% have a hit.

>  <Compound>
O=C1NC(=O)C(C(c2ccnc3ccccc23)C2C(=O)NC(=O)NC2=O)C(=O)N1

>  <growth inhibition [%]>
30.1

$$$$
>  <Compound>
COC(=O)C1=C(C(=O)OC)C2OC1c1cc3ccccc3cc12

>  <growth inhibition [%]>
99.6

$$$$
>  <Compound>
C=Cc1cc(OC)c2c(c1)c(=O)oc1c2cc(OC)c2c(O)ccc(C3OC(C)C(O)C(C)(O)C3O)c21 (stereo unspecified)

>  <growth inhibition [%]>
90.8

$$$$
>  <Compound>
Oc1c(-c2ccccc2)cc(-[n+]2c(-c3ccccc3)cc(-c3ccccc3)cc2-c2ccccc2)cc1-c1ccccc1

>  <growth inhibition [%]>
91.7

$$$$
>  <Compound>
N#C[SH2+].N#C[SH2+].N#C[SH2+].N#C[SH2+].[Cu+2].c1ccc(C[P+](c2ccccc2)(c2ccccc2)c2ccccc2)cc1

>  <growth inhibition [%]>
96.8

$$$$
>  <Compound>
CCOP(=O)(OCC)/C(C#N)=C/c1cccc(C)c1

>  <growth inhibition [%]>
71.4

$$$$
>  <Compound>
CCOP(=O)(OCC)Oc1cc(C)c(SC#N)c(C)c1

>  <growth inhibition [%]>
29.6

$$$$
>  <Compound>
C1CC[CH]([Sn]([CH]2CCCCC2)[CH]2CCCCC2)CC1.C1CC[CH]([Sn]([CH]2CCCCC2)[CH]2CCCCC2)CC1

>  <growth inhibition [%]>
31.5

$$$$
>  <Compound>
C/C(=N\NC(N)=O)C(CN1CCOCC1)C(c1ccccc1)c1c(O)c2ccccc2oc1=O (stereo unspecified)

>  <growth inhibition [%]>
70.2

$$$$
>  <Compound>
Cc1ccccc1C[As](C)(=O)O

>  <growth inhibition [%]>
9.95

$$$$
>  <Compound>
Cc1ccc2ccccc2c1NC1=NCCO1

>  <growth inhibition [%]>
-15.6

$$$$

* * *

Method: NCI Yeast Anticancer Drug Screen. Data for the mlh1 strain (AID 171);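 note: 0% = growth of vehicle-treated control cultures of the same strain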
Condition Label: S. cerevisiae mlh1 strain growth inhibition; at 11.0 µM; hits give high values
About 79,000 compounds went through this panel and 15% of them were active in at least one assay; those are over-represented in the sample as a whole.
Lab note: compare growth inhibition against 10%. Equal or greater, write class 1. Smaller, write class 0.

>  <Compound>
[O-][n+]1c2cccc(O)c2[n+]([O-])c2cccc(O)c21

>  <Class Name>
class 1

$$$$
>  <Compound>
O=S(=O)(O)c1ccc(Cl)cc1.[Cd]

>  <Class Name>
class 1

$$$$
>  <Compound>
CC1CC(Br)C(=O)O1 (centres undefined)

>  <Class Name>
class 0

$$$$
>  <Compound>
O=C(O)CCCc1cc(I)c(N(CCCl)CCCl)c(I)c1

>  <Class Name>
class 0

$$$$
>  <Compound>
O=C(O)C1C2CCC(C2)C1c1ccccc1 (centres undefined)

>  <Class Name>
class 0

$$$$
>  <Compound>
O=c1oc2ccccc2c(O)c1C(c1ccc2c(c1)Cc1ccccc1-2)c1c(O)c2ccccc2oc1=O

>  <Class Name>
class 1

$$$$
>  <Compound>
O=C1OC2C(O1)C1(Cl)C(Cl)=C(Cl)C2(Cl)C1(Cl)Cl (centres undefined)

>  <Class Name>
class 0

$$$$
>  <Compound>
O=P(Oc1ccc(Cl)cc1)(Oc1ccc(Cl)cc1)N1CC1

>  <Class Name>
class 0

$$$$
>  <Compound>
O=C1NC(=S)NC(=O)C1=Cc1ccc([N+](=O)[O-])o1

>  <Class Name>
class 1

$$$$
>  <Compound>
OCC(O)C(O)CO (centres undefined) (tested in a mixture with another compound)

>  <Class Name>
class 0

$$$$
>  <Compound>
Cc1cc[n+](C2=C(Nc3cccc(C(F)(F)F)c3)C(=O)c3ccccc3C2=O)cc1

>  <Class Name>
class 0

$$$$
>  <Compound>
Oc1cccnc1[Se]

>  <Class Name>
class 1

$$$$
>  <Compound>
CSc1ccccc1[As](C)C

>  <Class Name>
class 1

$$$$
>  <Compound>
CCCCCNC(=O)c1c(O)[nH]c(=S)[nH]c1=O

>  <Class Name>
class 1

$$$$
>  <Compound>
Oc1ccc2nc3ccccc3nc2c1

>  <Class Name>
class 1

$$$$
>  <Compound>
CCCCN(CCCC)CC(C(C)=O)C(c1ccccc1)c1c(O)c2ccccc2oc1=O (centres undefined)

>  <Class Name>
class 0

$$$$
>  <Compound>
C[C@]12CCC(=O)C=C1CC[C@@H]1C2CC[C@@]2(C)C1CC[C@@H]2OC(=O)C12OC1CCC2=O (some centres undefined)

>  <Class Name>
class 1

$$$$
>  <Compound>
O=C1c2ccc3ccccc3c2CCC1N1CCCCC1 (centres undefined)

>  <Class Name>
class 1

$$$$
>  <Compound>
CC[C@]1(O)CC(OC2CC(N(C)C)C(O)C(C)O2)c2c(cc3c(c2O)C(=O)c2c(O)cccc2C3=O)[C@@H]1C(=O)OC (some centres undefined)

>  <Class Name>
class 0

$$$$
>  <Compound>
CCOC(=O)C1([Se]c2ccccc2)CCCC1=O (centres undefined)

>  <Class Name>
class 1

$$$$
>  <Compound>
O=C1C2CC(Cl)C(SSC3CC4C(=O)N(SC(Cl)(Cl)C(Cl)Cl)C(=O)C4CC3Cl)CC2C(=O)N1SC(Cl)(Cl)C(Cl)Cl (centres undefined)

>  <Class Name>
class 1

$$$$
>  <Compound>
O=C(COc1ccc(Cl)cc1Cl)NO

>  <Class Name>
class 0

$$$$

* * *

Method: NCI Yeast Anticancer Drug Screen. Data for the bub3 strain (AID 167)
Condition Label: S. cerevisiae bub3 mutant strain, at 50.0 µM, hits give high values
The panel holds about 79,000 compounds, 15% with a hit somewhere; the sample as a whole holds those more often. Calls of active or inactive are those of the source. Rule as the data show it: active = growth inhibition above about 70%; inactive = the rest.
Entries and their growth inhibition
Endpoint Label: growth inhibition

>  <Compound>
CC(=O)C(CN(C(C)C)C(C)C)C(c1ccccc1)c1c(O)c2ccccc2oc1=O (stereo unspecified)

>  <Endpoint Label>
growth inhibition

>  <Measured>
70.3% (active)

$$$$
>  <Compound>
O=c1oc2ccccc2c(O)c1C(c1ccc2ccccc2c1)c1c(O)c2ccccc2oc1=O

>  <Endpoint Label>
growth inhibition

>  <Measured>
28.4% (inactive)

$$$$
>  <Compound>
CO[C@H](/C(C)=C/C=C/C(C)=C/c1coc(C)n1)[C@H](C)[C@H]1C[C@@H](O)[C@@]2(C)O[C@H]2/C=C/[C@@H](C)[C@@H]2C[C@@H](CC(=O)O2)C[C@H]2O[C@@H]2C(=O)O1

>  <Endpoint Label>
growth inhibition

>  <Measured>
83.3% (active)

$$$$
>  <Compound>
CCOC(=S)S

>  <Endpoint Label>
growth inhibition

>  <Measured>
99.2% (active)

$$$$
>  <Compound>
Cc1ccccc1NC(=O)CBr

>  <Endpoint Label>
growth inhibition

>  <Measured>
98.2% (active)

$$$$
>  <Compound>
CC(=O)Oc1cccc2c1CC(C[Se]c1ccccc1)C(=O)O2 (stereo unspecified)

>  <Endpoint Label>
growth inhibition

>  <Measured>
35% (inactive)

$$$$
>  <Compound>
CCCCCCC1CCC2CCCC(C)N12 (stereo unspecified)

>  <Endpoint Label>
growth inhibition

>  <Measured>
89% (active)

$$$$
>  <Compound>
C[N+](C)=C1C=CC(=C2C=CSC=C2)C=C1

>  <Endpoint Label>
growth inhibition

>  <Measured>
79.2% (active)

$$$$
>  <Compound>
CCCCCCCCCCCCCCCCCC(=O)[O][Hg][c]1ccccc1

>  <Endpoint Label>
growth inhibition

>  <Measured>
90% (active)

$$$$
>  <Compound>
CC1CCS(=O)(=O)CC1.[Cl][Hg][Cl]

>  <Endpoint Label>
growth inhibition

>  <Measured>
99.5% (active)

$$$$
>  <Compound>
c1ccc2c3ccn4cc5c(cc4c-3nc2c1)CCCC5

>  <Endpoint Label>
growth inhibition

>  <Measured>
87% (active)

$$$$
